What follows is a record of CYP3A4 IC50 for CYP3A4 (Homo sapiens, UniProt P08684).
Structures can show the parent of a compound that is named as a salt.

compound	measurement target	CYP3A4 IC50
c1ccc2c(c1)c1cccc3ccc4cccc2c4c31 [Benzo(e)pyrene]	CYP3A4 (Homo sapiens, UniProt P08684)	Inactive
CCN(CC)CCCC(C)Nc1c2ccc(Cl)cc2nc2ccc(OC)cc12 (stereo not shown)	CYP3A4 (Homo sapiens, UniProt P08684)	Inactive
Cl.ClCCCN1CCN(c2cccc(Cl)c2)CC1	CYP3A4 (Homo sapiens, UniProt P08684)	15.49 ± 0 (111 ± 12) µM
c1cc2ccc3ccc4ccc5cccc6c(c1)c2c3c4c56	CYP3A4 (Homo sapiens, UniProt P08684)	Inactive
CN(C)CCN(Cc1ccc(Cl)cc1)c1ccccn1.Cl [Chloropyramine hydrochloride]	CYP3A4 (Homo sapiens, UniProt P08684)	Inactive
CN1CCc2cc(Cl)c(O)cc2[C@H]2c3ccccc3CC[C@@H]21	CYP3A4 (Homo sapiens, UniProt P08684)	1.89 ± 0.26 (95 ± 11) µM
c1ccc2c(c1)ccc1c3ccccc3ccc21	CYP3A4 (Homo sapiens, UniProt P08684)	Inactive
CN(Cc1cc(Br)cc(Br)c1N)C1CCCCC1 [Bromhexine hydrochloride]	CYP3A4 (Homo sapiens, UniProt P08684)	Inactive
N#Cc1cc2ccccc2c2ccccc12	CYP3A4 (Homo sapiens, UniProt P08684)	Inactive
c1ccc2nc(N3CCNCC3)ccc2c1 [Quipazine maleate]	CYP3A4 (Homo sapiens, UniProt P08684)	Inactive

* * *

Measured CYP1A2 Efficacy (in parenthesis) values are reported for all entries that follow.
Molecular target: human CYP1A2 (Homo sapiens)
Sequence (P05177 1-516): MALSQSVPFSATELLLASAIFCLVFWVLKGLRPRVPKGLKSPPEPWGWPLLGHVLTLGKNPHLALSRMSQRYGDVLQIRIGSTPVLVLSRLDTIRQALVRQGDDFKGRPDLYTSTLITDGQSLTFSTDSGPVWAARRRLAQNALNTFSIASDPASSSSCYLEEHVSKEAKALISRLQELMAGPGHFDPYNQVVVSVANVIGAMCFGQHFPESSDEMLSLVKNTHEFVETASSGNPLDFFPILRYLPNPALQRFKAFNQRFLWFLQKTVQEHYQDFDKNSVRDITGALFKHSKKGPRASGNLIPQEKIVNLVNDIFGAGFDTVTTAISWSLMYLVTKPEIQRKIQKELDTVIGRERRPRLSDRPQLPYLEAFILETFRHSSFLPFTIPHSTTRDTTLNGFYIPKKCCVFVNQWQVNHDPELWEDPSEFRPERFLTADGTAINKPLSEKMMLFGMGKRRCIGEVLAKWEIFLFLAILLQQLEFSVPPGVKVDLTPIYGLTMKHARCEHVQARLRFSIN
Conditions: human

compound	CYP1A2 Efficacy (in parenthesis)
Clc1ccc(C(Cn2ccnc2)OCc2ccsc2Cl)c(Cl)c1 (centres unmarked)	4.61 ± 0.27 (-94 ± 11) %
CC(C)[N+](C)(CCC(C(N)=O)(c1ccccc1)c1ccccc1)C(C)C [Isopropamide]	30.41 ± 7.39 (-70 ± 30) %
Clc1ccc(Nc2nnc(Cc3ccncc3)c3ccccc23)cc1	2.03 ± 0.52 (-97 ± 14) %
Clc1ccc(C(c2ccc(Cl)cc2)C(Cl)Cl)cc1	6.46 ± 0.74 (-96 ± 1) %
Clc1ccc(C(Cn2ccnc2)OCc2ccc(Sc3ccccc3)cc2)c(Cl)c1 (centres unmarked) [Fenticonazole nitrate]	16.12 ± 1.09 (-89 ± 8) %
CCCC1COC(Cn2cncn2)(c2ccc(Cl)cc2Cl)O1 (centres unmarked)	24.72 ± 6.17 (-104 ± 9) %
CCC1COC(Cn2cncn2)(c2ccc(Cl)cc2Cl)O1 (centres unmarked)	31.85 ± 3.66 (-69 ± 5) %
CCCOC/C(=N\c1ccc(Cl)cc1C(F)(F)F)n1ccnc1	9.3 ± 0.63 (-102 ± 6) %
CCOP(=S)(OCC)Oc1ccc([N+](=O)[O-])cc1	0.99 ± 0.17 (-96 ± 2) %
Clc1ccc(CCC(Cn2ccnc2)Sc2c(Cl)cccc2Cl)cc1 (centres unmarked) [Butoconazole nitrate]	16.12 ± 1.09 (-93 ± 6) %
O=C1N(c2ccccc2)c2ccccc2C1(Cc1ccncc1)Cc1ccncc1	24.14 ± 9.56 (-50 ± 8) %
Oc1ccc2ccc3cccc4ccc1c2c34 [1-Hydroxypyrene]	0.83 ± 0.11 (-98 ± 1) %
Clc1ccccc1-c1nc(-c2ccncc2)no1 [Pifexole]	0.39 ± 0.12 (-91 ± 4) %
C=CCOC(=O)C(C)(C)OC(=O)c1cc(-n2c(=O)cc(C(F)(F)F)n(C)c2=O)ccc1Cl	35.06 ± 4.03 (-48 ± 4) %
CCOP(=S)(OCC)SCSc1ccc(Cl)cc1	8.84 ± 2.46 (-90 ± 2) %
O=S(=O)(c1ccc(Cl)cc1)c1ccc(Cl)cc1	36.17 ± 4.16 (-44 ± 9) %
Brc1c(Br)c(Br)c(Br)c(Br)c1Br	0.09 ± 0.01 (-45 ± 9) %
Clc1ccc(C2(Cn3cncn3)OCCO2)c(Cl)c1	33.14 ± 4.22 (-89 ± 9) %
COP(=S)(OC)Oc1ccc(S(=O)(=O)N(C)C)cc1	35.73 ± 4.11 (-67 ± 14) %
CC[N+](CC)(CC(=O)Nc1c(C)cccc1C)Cc1ccccc1 [Denatonium benzoate]	38.47 ± 2.51 (-59 ± 16) %
Brc1ccc(Oc2ccc(Br)cc2Br)c(Br)c1	16.84 ± 7.26 (-69 ± 6) %
Brc1c2ccccc2c(Br)c2ccccc12	0.41 ± 0.27 (-85 ± 6) %
CN(C)C(=O)Nc1ccc(Cl)c(Cl)c1	0.86 ± 0.12 (-103 ± 3) %
CCNP(=S)(OC)O/C(C)=C/C(=O)OC(C)C (centres unmarked)	2.25 ± 0.26 (-99 ± 4) %
CCOP(=S)(OCC)Oc1ccc2c(C)c(Cl)c(=O)oc2c1	3.5 ± 0.6 (-95 ± 2) %
O=C(Nc1ccc(Cl)c(Cl)c1)C1CC1	0.54 ± 0.08 (-97 ± 6) %
